Test System: T1, IL-10 receptors R1 and R2 on HEK-Blue IL-10 reporter cells (UniProt Q13651 22-578; Q08334 20-325, limits assumed)
T1 sequence (looked up) 1: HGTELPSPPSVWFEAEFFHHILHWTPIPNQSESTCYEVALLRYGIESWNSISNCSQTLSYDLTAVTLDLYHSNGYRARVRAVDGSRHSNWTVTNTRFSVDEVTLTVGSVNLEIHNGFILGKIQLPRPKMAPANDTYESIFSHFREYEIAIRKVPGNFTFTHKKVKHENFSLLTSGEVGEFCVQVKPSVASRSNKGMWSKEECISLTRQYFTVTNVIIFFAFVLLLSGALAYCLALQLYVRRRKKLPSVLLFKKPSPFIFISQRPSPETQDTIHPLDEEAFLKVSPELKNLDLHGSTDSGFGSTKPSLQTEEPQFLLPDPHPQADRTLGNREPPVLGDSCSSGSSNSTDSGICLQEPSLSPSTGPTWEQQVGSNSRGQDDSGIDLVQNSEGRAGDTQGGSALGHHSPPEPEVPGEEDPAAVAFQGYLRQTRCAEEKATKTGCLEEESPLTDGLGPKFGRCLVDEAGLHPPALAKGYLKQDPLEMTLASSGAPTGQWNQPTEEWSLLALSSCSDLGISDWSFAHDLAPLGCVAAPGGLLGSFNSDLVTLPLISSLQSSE
T1 sequence (looked up) 2: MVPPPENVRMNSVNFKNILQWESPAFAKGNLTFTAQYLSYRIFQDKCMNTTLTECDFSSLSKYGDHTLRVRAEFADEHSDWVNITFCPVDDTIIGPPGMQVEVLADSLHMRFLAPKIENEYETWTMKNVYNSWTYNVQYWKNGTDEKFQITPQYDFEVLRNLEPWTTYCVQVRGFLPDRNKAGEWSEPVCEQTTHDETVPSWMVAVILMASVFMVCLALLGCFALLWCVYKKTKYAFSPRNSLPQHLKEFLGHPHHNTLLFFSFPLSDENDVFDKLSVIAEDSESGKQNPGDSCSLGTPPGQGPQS
Protocol: cell-based or functional assay
Consider the following binders and their measured Fold change-apparentKD (against IL-10 ORF) readings.
Please reply with the bare figure in fold and do not write the unit itself.

As a guide, the following entries are already answered.
Documented Fold change-apparentKD (against IL-10 ORF) of MutSC1 (foldikine_10, single chain dimeric IL-10) (ligand) MTQSENSCTHFPGNLPNMLRDLRDAFSRVKTFFQMKDQLDNLLLKESLLEDFKGYLGCQALSEMIQFYLEEVMPQAENQDPDIKAHVNSLGENLKTLRLRLRRCHRFLPCENKSKAVEQVKNAFNKLQEKGIYKAMSEFDIFINYIEAYMTMNNGGLDYLPNMLRDLRDAFSRVKTFFQMKDQLDNLLLKESLLEDFKGYLGCQALSEMIQFYLEEVMPQAENQDPDIKAHVNSLGENLKTLRLRLRRNHRFLPCENKSKAVEQVKNAFNKLQEKGIYKAMSEFDIFINYIEAYMTMKIRN : 10.4

Item: Mut3 (IL-10 D28E, S31K, N45S, T155M, N18I, N92I, K99N) (ligand) MSPGQGTQSENSCTHFPGILPNMLRDLREAFKRVKTFFQMKDQLDSLLLKESLLEDFKGYLGCQALSEMIQFYLEEVMPQAENQDPDIKAHVISLGENLNTLRLRLRRCHRFLPCENKSKAVEQVKNAFNKLQEKGIYKAMSEFDIFINYIEAYMMMKIRN | Fold change-apparentKD (against IL-10 ORF): 7.59

New cases:
Query Mut2 (IL-10 D28E, S31K, N45S, T155M) (ligand) MSPGQGTQSENSCTHFPGNLPNMLRDLREAFKRVKTFFQMKDQLDSLLLKESLLEDFKGYLGCQALSEMIQFYLEEVMPQAENQDPDIKAHVNSLGENLKTLRLRLRRCHRFLPCENKSKAVEQVKNAFNKLQEKGIYKAMSEFDIFINYIEAYMMMKIRN yields Fold change-apparentKD (against IL-10 ORF) of 3.07
